species on record: Mus musculus; test: Selectivity ratio of Ki for delta opioid receptor in CD1 mouse whole brain minus cerebellum membranes to Ki for mu opioid receptor in CD1 mouse whole brain minus cerebellum membranes; assay type: tissue-based
PROPERTY: Ratio Ki
Keep the answer to the number alone.

Sample answers from the record:
MOLECULE	Ratio Ki
COc1c(OC)c(O)c2c(=O)cc(-c3ccc(O)cc3)oc2c1OC [XANTHOMICROL]	4.36
COc1c(OC)c(O)c2c(=O)cc(-c3ccc(O)c(O)c3)oc2c1OC [SIDERITIFLAVONE]	0.68

Q: Provide one value: measured Ratio Ki of COc1ccc(-c2cc(=O)c3c(O)c(OC)c(O)cc3o2)cc1OC [EUPATILIN]
A: 0.43

Q: Provide one value: measured Ratio Ki of COc1ccc(-c2cc(=O)c3c(OC)c(OC)c(OC)c(OC)c3o2)cc1 [TANGERETIN]
A: 0.43
